Would you mind telling me the reported abundance fitness of each entry?
B1: Nuclear receptor subfamily 4 group A member 2, residues 260 to 336; numbered along this chain, P43354 (parent)
chain: EGLCAVCGDNAACQHYGVRTCEGCKGFFKRTVQKNAKYVCLANKNCPVDKRRRNRCQYCRFQKCLAVGMVKEVVRTD

- Variants of: B1
- test: abundance fitness (aPCA) (normalised: wild type 0, dead -1); higher = more abundant; growth selection in yeast, the domain comes from the species named
- condition_context: Homo sapiens
Returns: the value as a bare number; no unit string appended.

Prompt: Request the reported abundance fitness associated with `A66K`
Response: -0.2

Prompt: Request the reported abundance fitness associated with `H15M`
Response: 0.054

Prompt: Request the reported abundance fitness associated with `A42W`
Response: -0.305

Prompt: Request the reported abundance fitness associated with `R30T`
Response: -0.028

Prompt: Request the reported abundance fitness associated with `E72W`
Response: -0.276

Prompt: Request the reported abundance fitness associated with `E22H`
Response: -0.02

Prompt: Request the reported abundance fitness associated with `Q57E`
Response: -0.083

Prompt: Request the reported abundance fitness associated with `E72V`
Response: -0.268

Prompt: Request the reported abundance fitness associated with `C64L`
Response: -0.372

Prompt: Request the reported abundance fitness associated with `F27M`
Response: -0.584

Prompt: Request the reported abundance fitness associated with `R19I`
Response: -0.03

Prompt: Request the reported abundance fitness associated with `A36L`
Response: 0.017

Prompt: Request the reported abundance fitness associated with `V39Q`
Response: -0.244

Prompt: Request the reported abundance fitness associated with `L65I`
Response: -0.274

Prompt: Request the reported abundance fitness associated with `Y16V`
Response: -0.185

Prompt: Request the reported abundance fitness associated with `F28Q`
Response: -0.484

Prompt: Request the reported abundance fitness associated with `K63R`
Response: -0.206

Prompt: Request the reported abundance fitness associated with `V67T`
Response: -0.06

Prompt: Request the reported abundance fitness associated with `R53I`
Response: -0.043

Prompt: Request the reported abundance fitness associated with `R19M`
Response: -0.175

Prompt: Request the reported abundance fitness associated with `N54I`
Response: 0.164

Prompt: Request the reported abundance fitness associated with `Q33K`
Response: -0.035

Prompt: Request the reported abundance fitness associated with `E72G`
Response: -0.067

Prompt: Request the reported abundance fitness associated with `R19N`
Response: 0.182

Prompt: Request the reported abundance fitness associated with `F27E`
Response: -0.959

Prompt: Request the reported abundance fitness associated with `V39S`
Response: 0.071

Prompt: Request the reported abundance fitness associated with `G23K`
Response: 0.106

Prompt: Request the reported abundance fitness associated with `R60L`
Response: 0.047

Prompt: Request the reported abundance fitness associated with `R55E`
Response: -0.035

Prompt: Request the reported abundance fitness associated with `C59W`
Response: -1.33

Prompt: Request the reported abundance fitness associated with `K50T`
Response: 0.102

Prompt: Request the reported abundance fitness associated with `K29L`
Response: 0.008
